# Target of assay: Fibroblast growth factor receptor 2 (Homo sapiens) (UniProt P21802)
# Sequence (P21802 22-821 limits assumed): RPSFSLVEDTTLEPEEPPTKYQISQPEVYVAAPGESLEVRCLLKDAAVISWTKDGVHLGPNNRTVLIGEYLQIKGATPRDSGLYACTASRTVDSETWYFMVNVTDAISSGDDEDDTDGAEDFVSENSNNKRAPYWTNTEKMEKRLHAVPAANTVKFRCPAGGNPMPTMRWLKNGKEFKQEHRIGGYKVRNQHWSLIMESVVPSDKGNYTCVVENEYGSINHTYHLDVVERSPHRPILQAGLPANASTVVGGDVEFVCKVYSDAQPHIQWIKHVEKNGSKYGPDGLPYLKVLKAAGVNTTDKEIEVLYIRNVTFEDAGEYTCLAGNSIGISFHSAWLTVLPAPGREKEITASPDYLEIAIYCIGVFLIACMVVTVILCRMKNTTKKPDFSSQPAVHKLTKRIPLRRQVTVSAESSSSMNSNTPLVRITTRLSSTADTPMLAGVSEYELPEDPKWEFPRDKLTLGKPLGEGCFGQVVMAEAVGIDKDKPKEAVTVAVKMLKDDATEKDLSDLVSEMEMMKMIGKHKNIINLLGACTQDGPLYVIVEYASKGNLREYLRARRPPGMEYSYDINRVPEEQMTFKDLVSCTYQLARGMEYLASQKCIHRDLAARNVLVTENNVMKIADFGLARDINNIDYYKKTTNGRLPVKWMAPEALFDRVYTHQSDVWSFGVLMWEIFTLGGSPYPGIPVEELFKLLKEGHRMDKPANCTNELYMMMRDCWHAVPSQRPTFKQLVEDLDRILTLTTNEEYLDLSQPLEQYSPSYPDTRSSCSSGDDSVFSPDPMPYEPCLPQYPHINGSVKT
# Protocol conditions: at 1 µM
Endpoint name: inhibition (%)
Supply the numeric figure in %, leaving out any unit text.

For orientation, consider the following solved cases.
- COc1c(C(N)=O)cc(-c2ccc(Cl)cc2)cc1-c1ccc(S(N)(=O)=O)cc1: 5.85
- Cc1cc(O)cc(C)c1/C=C/c1cncc(C(N)=O)c1: 7.34
- CCS(=O)(=O)c1ccc(OC)c(Nc2ncc(-c3cccc(F)c3)o2)c1: 69.8
- CNC(=O)c1ncccc1Nc1nc(Nc2cc3c(cc2OC)CCCN3C(=O)CN(C)C)nc2[nH]ccc12: 6.99
- CN1CCC(n2cnc(-c3ccc(F)cc3)c2-c2ccnc(NCCO)n2)CC1: 6.49
- CS(=O)(=O)CCNCc1ccc(-c2ccc3ncnc(Nc4ccc(OCc5ccccc5)cc4)c3c2)o1: 4.3
- NS(=O)(=O)c1ccc(N/N=C2\C(=O)Nc3cccc(CCc4ccncc4)c32)cc1: 18.2
- Cc1nnc(-c2cccc(-c3ccc(C(=O)NCC4CC4)cc3)c2)o1: 5.08

State recorded inhibition with Fibroblast growth factor receptor 2 (Homo sapiens) (UniProt P21802), entry "Fc1ccc(Nc2nccc(-c3c(-c4ccc(C(F)(F)F)cc4)nn4ncccc34)n2)cc1F" , no comment.
6.72

For Fibroblast growth factor receptor 2 (Homo sapiens) (UniProt P21802), give inhibition of the listed compound: "CCOc1ccc2c(-c3ccnc(Nc4cc(OC)cc(C(F)(F)F)c4)n3)cnn2n1"
3.9

Write down the reported inhibition (system: Fibroblast growth factor receptor 2 (Homo sapiens) (UniProt P21802)) of "COC(=O)Nc1nc2cc(Oc3ccc(NC(=O)Nc4ccccc4)cc3)ccc2[nH]1"
4.03

Return reported inhibition for target or system Fibroblast growth factor receptor 2 (Homo sapiens) (UniProt P21802), item "Fc1cccc(COc2ccc(Nc3ncncc3C#Cc3ccccc3)cc2Cl)c1" .
5.85

# return inhibition for "CCN1CCC(C(=O)Nc2n[nH]c3nnc(-c4cccc(F)c4F)cc23)CC1" , test system: Fibroblast growth factor receptor 2 (Homo sapiens) (UniProt P21802)
-2.18

Lab note: Fibroblast growth factor receptor 2 (Homo sapiens) (UniProt P21802) assay, enter inhibition for CC1=C(C(=O)Nc2ccc3[nH]ncc3c2)C(c2ccc(F)cc2)N=C(c2ccc(C(F)(F)F)nc2)N1 (stereo unspecified) here
9.66

Recall the reported inhibition of "Cn1c(-c2nonc2N)nc2cnccc21" when tested on Fibroblast growth factor receptor 2 (Homo sapiens) (UniProt P21802).
1.91

Recall the reported inhibition of "c1ccc(-c2n[nH]cc2-c2ccnc(-c3ccc(OCCn4ccnc4)cc3)c2)nc1" when tested on Fibroblast growth factor receptor 2 (Homo sapiens) (UniProt P21802).
2.51

Find inhibition for "CCCNc1cccc(-n2ncc3c(N/N=C/c4ccncc4)ncnc32)c1" on Fibroblast growth factor receptor 2 (Homo sapiens) (UniProt P21802) and write it down.
19.4

Please tell me the measured inhibition for "CCn1c(-c2nonc2N)nc2cncc(C(=O)NCCNC)c21" ; system: Fibroblast growth factor receptor 2 (Homo sapiens) (UniProt P21802).
5.33

Print Fibroblast growth factor receptor 2 (Homo sapiens) (UniProt P21802) inhibition for "COc1ccc(Nc2ncc(-c3ccccc3)o2)cc1OC" .
19.4

Recall the reported inhibition of "CS(=O)(=O)CCNCc1ccoc1-c1ccc2ncnc(Nc3ccc(OCc4ccccc4)cc3)c2c1" when tested on Fibroblast growth factor receptor 2 (Homo sapiens) (UniProt P21802).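 Also: reported figure is a mean percent inhibition of FGFR2.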
2.62

Report measured inhibition on Fibroblast growth factor receptor 2 (Homo sapiens) (UniProt P21802); entry: "OCCCNc1nccc(-c2c(-c3ccc(F)cc3)nn3cc(C(F)(F)F)ccc23)n1"
3.29

====

# Target of assay: Ephrin type-A receptor 4 (Homo sapiens);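 also: mean inhibition of EPHA4 from the GSK PKIS screening set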
# Protocol conditions: at 0.1 µM
Endpoint name: inhibition (%)
Return type: number; implicit unit %.

Would you please look over these solved cases?
* CNC(=O)c1ncccc1Nc1nc(Nc2cc3c(cc2OC)CCCN3C(=O)CN(C)C)nc2[nH]ccc12 | 7.88
* CN(c1ccc(NC(=O)NCCN2CCOCC2)cc1)c1ccnc(Nc2ccc(CS(C)(=O)=O)cc2)n1 | 8.57
* NS(=O)(=O)c1ccc(N/N=C2\C(=O)Nc3ccc(C(=O)NCc4ccncc4)cc32)cc1 | 8.7
* Fc1cccc(COc2ccc(Nc3ncncc3C#Cc3ccccc3)cc2Cl)c1 | 9.27
* Cc1nnc(-c2cccc(-c3ccc(C(=O)NCC4CC4)cc3)c2)o1 | 11.3

Supply reported inhibition belonging to this compound: "Cn1c(-c2nonc2N)nc2cnccc21"
7.88

Return reported inhibition. Input compound: "Cc1cc(O)cc(C)c1/C=C/c1cncc(C(N)=O)c1"
18.6

Read off the recorded inhibition for "CS(=O)(=O)CCNCc1ccc(-c2ccc3ncnc(Nc4ccc(OCc5ccccc5)cc4)c3c2)o1"
9.98

# return recorded inhibition for input "CCOc1ccc2c(-c3ccnc(Nc4cc(OC)cc(C(F)(F)F)c4)n3)cnn2n1"
2.94

Name the recorded inhibition of the item "CS(=O)(=O)Nc1ccc(-c2ccc3c(NC(=O)C4CC4)n[nH]c3c2)cc1" in your answer.
5.41

====

# Target of assay: Serine/threonine-protein kinase Nek2 (Homo sapiens) (UniProt P51955);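 also: mean inhibition value from the GSK PKIS kinase screening panel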
# Sequence (P51955 whole entry): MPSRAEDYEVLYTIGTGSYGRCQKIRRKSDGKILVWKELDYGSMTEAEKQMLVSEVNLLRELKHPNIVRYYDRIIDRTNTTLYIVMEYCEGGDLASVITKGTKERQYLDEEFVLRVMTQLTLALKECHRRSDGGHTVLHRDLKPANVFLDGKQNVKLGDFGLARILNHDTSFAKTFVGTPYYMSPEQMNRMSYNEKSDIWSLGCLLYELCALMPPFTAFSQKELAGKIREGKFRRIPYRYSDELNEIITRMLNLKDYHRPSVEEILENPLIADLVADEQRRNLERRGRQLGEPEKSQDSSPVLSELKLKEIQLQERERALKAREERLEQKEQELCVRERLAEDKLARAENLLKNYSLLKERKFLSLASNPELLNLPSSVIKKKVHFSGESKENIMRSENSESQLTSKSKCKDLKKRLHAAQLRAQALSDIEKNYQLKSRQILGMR
# Protocol conditions: at 0.1 µM
Endpoint name: inhibition (%)
Give just the number in %; leave the unit off.

Return value of inhibition for input "O=C(Nc1n[nH]c2nnc(-c3cccnc3)cc12)C1CC1" , no commentary.
0.71

Output inhibition of "FC(F)(F)CNc1nccc(-c2cnn3ncccc23)n1"
3.06

Find the measured inhibition of "N#Cc1cccc(Nc2ncc(-c3ccccc3)o2)c1" and report it.
2.51

Return value of inhibition for input "O=C(O[C@H]1CN[C@H](C#Cc2cc3ncnc(Nc4ccc5c(ccn5Cc5cc(F)ccc5F)c4)c3s2)C1)N1CCOCC1" , no commentary.
2.01

Name the recorded inhibition of the compound listed here: "CN(C)CCNC(=O)Nc1ccc(N(C)c2ccnc(Nc3ccc(CS(C)(=O)=O)cc3)n2)cc1"
5.18

In one line, give reported inhibition of the entry "OCCCNc1nccc(-c2c(-c3ccc(F)cc3)nn3cc(C(F)(F)F)ccc23)n1" .
2.83

Output measured inhibition for this item: "Cc1cc(O)cc(C)c1/C=C/c1cncc(C(=O)OC(C)(C)C)c1"
3.29

Please give the documented inhibition of "Cc1nnc(-c2cccc(-c3ccc(C(=O)NCC4CC4)cc3)c2)o1"
6.76

State its inhibition for this compound: CC1=C(C(=O)Nc2ccc3[nH]ncc3c2)C(c2ccc(F)cc2)N=C(c2ccc(C(F)(F)F)nc2)N1 (stereo not given)
3.41

Entry "COc1ccc(-c2nn3ncccc3c2-c2ccnc(Nc3ccc(F)c(F)c3)n2)cc1" needs its inhibition filled in; supply it.
3.89

====

# Target of assay: Tyrosine-protein kinase JAK1 (Homo sapiens) (UniProt P23458)
# Sequence (P23458 whole entry): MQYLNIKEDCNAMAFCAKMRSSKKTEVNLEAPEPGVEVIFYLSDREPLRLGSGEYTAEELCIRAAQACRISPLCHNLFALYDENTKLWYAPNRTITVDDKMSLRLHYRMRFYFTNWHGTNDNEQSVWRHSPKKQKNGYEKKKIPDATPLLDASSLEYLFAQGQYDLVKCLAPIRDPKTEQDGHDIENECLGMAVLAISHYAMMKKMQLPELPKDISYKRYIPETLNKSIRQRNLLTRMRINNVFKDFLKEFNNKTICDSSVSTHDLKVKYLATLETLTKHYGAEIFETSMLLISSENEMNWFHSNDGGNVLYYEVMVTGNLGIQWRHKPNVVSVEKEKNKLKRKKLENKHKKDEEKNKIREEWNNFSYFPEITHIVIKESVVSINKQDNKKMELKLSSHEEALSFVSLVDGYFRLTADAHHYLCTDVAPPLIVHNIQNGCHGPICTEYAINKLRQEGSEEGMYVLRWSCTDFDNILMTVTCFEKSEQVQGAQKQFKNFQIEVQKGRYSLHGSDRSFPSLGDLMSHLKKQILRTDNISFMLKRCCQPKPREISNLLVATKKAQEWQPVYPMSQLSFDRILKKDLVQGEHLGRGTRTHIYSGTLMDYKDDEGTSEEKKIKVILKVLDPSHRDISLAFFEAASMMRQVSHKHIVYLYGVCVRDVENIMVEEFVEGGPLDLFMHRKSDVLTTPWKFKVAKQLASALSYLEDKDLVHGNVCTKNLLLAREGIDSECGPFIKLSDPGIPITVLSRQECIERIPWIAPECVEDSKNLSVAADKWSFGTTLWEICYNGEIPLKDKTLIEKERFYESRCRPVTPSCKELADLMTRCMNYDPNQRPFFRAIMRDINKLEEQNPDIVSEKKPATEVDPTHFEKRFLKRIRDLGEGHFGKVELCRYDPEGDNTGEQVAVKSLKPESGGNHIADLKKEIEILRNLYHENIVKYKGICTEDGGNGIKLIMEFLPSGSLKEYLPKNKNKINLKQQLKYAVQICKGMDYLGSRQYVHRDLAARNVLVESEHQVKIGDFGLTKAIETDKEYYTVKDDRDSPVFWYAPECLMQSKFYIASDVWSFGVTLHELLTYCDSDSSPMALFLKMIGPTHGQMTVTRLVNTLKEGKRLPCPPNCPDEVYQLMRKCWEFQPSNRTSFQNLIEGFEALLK
# Protocol conditions: at 0.1 µM
# Description: GSK_PKIS: JAK1 mean inhibition at 0.1 uM [Nanosyn]
Endpoint name: inhibition (%)
Your answer should be a plain number; it is taken to be in %.

• O=C(O[C@H]1CN[C@H](C#Cc2cc3ncnc(Nc4ccc5c(cnn5Cc5ccccc5)c4)c3s2)C1)N1CCOCC1 = 0.1
• FC(F)(F)CNc1nccc(-c2cnn3ncccc23)n1 = 1.9
• CCCNc1cccc(-n2ncc3c(N/N=C/c4ccncc4)ncnc32)c1 = 6.59
• COc1ccc(Nc2ncc(-c3ccccc3)o2)cc1OC = 0.7
• O=C1Nc2ccccc2/C1=C1\CCc2cc(O)ccc21 = 3.42
• CS(=O)(=O)Nc1ccc(-c2ccc3c(NC(=O)C4CC4)n[nH]c3c2)cc1 = 2.35

Tell me inhibition reported for "Cc1nnc(-c2cccc(-c3ccc(C(=O)NCC4CC4)cc3)c2)o1"
2.76

Kindly indicate its recorded inhibition. Item: "CCOc1ccc2c(-c3ccnc(Nc4cc(OC)cc(C(F)(F)F)c4)n3)cnn2n1"
-2.13

Recall and state the measured inhibition for "CCS(=O)(=O)c1ccc(OC)c(Nc2ncc(-c3cccc(F)c3)o2)c1" .
7.39

State its inhibition for this molecule: "COc1ccc2ncn(-c3cc(O[C@H](C)c4ccccc4C(F)(F)F)c(C(N)=O)s3)c2c1"
-0.98

====

# Target of assay: Dual specificity protein kinase CLK2 (Homo sapiens)
# Protocol conditions: at 0.1 µM
# Description: GSK_PKIS: CLK2 mean inhibition at 0.1 uM [Nanosyn]
Endpoint name: inhibition (%)
Please reply with the bare figure in % and do not write the unit itself.

# count of solved cases: 3
• CC1=C(C(=O)Nc2ccc3[nH]ncc3c2)C(c2ccc(F)cc2)N=C(c2ccc(C(F)(F)F)nc2)N1 (centres undefined) = 0.46
• COc1ccccc1-c1cc(/C=C2\C(=O)Nc3ncc(Br)cc32)cc(Br)c1O = 1.63
• CN1CCC(n2cnc(-c3ccc(F)cc3)c2-c2ccnc(NCCO)n2)CC1 = 1.02

Give a short answer stating reported inhibition for "O=C(Nc1n[nH]c2nnc(-c3cccnc3)cc12)C1CC1" .
5.98

Look up and report measured inhibition for this entry: "CNC(=O)c1cncc(/C=C/c2ccccc2C)c1"
2.83

Report inhibition for "O=C1Nc2ccccc2/C1=C1\CCc2cc(O)ccc21"
2.81
